# Assay info: MELAS cybrid and Rieske KO viability enhancers – cell-based, MELAS cybrids, Rieske KO mouse fibroblasts, CellTiter-Glo, primary screen (AID 1508586);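 note: z relative to plate mean and SD of compound and empty wells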
# Conditions used: Rieske KO mouse fibroblast survival, low glucose, CellTiter-Glo 72 h
# z-score values compiled below

Answered cases to consult:
> print(dat)
                                   molecule  result.value
1  Nc1ccc(Sc2ccc(N3C(=O)c4ccc(N)cc4C3=O)cc2)cc1         0.253
2  CN(C)C(=O)c1cc(-c2[nH]ncc2-c2ccccc2)c[nH]1         0.199
3  CC1=C(C(=O)O)N2C(=O)C(NC(=O)C(N)c3ccccc3)[C@@H]2SC1 (stereo not given in full)        0.0723
4  C=C1C(=CC=C2CCC[C@@]3(C)[C@H]2CC[C@H]3C(C)C=CC(C)C(C)C)CC(O)CC1O (stereo not given in full)          1.18
5  CN(C)C(=O)c1cc(-c2cnc(-c3ccccn3)nc2)nc2cc(F)ccc12        -0.334
6  COc1cc(CN2CCc3c(c(C(=O)NCCCN4CCOCC4)nn3C)C2)cc2c1OCO2        -0.162

[ask] What z-score value was documented for this molecule, COc1ccc(CN2CCN(c3cc(C)nc(N)n3)CC2=O)cc1 ?
[reply] 0.559

[ask] Also CN(Cc1cnc2ccccc2n1)C(=O)Nc1n[nH]c(-c2ccco2)n1 , if possible.
[reply] 3.4

[ask] Also CC1(C)CCC[C@@]2(C)[C@H]3CC(=O)O[C@]3(C)CC[C@@H]12 , if possible.
[reply] 1.06

[ask] Also Cc1cc(-c2cnn(CC(=O)Nc3ccnn3Cc3ccccc3)c2)nc(N)n1 , if possible.
[reply] 0.0522

----------
# Assay info: P. berghei load reduction in hepatocytes – cell-based, HepG2, luciferase luminescence, HepG2 viability, primary screen (AID 624349);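 note: 100% = mean of DMSO negative control wells on the same plate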
# Conditions used: P. berghei liver stage in HepG2, luciferase luminescence, concentration not given here; stronger effect = lower value
Calls of active or inactive are those of the source. No stated cut-off is given here; in the data, active means parasite load remaining mostly below about 12% (no sharp cut-off); inactive means mostly above about 10%.
# parasite load remaining values compiled below

Answered cases to consult:
Compound	Result value
O=C(c1cc2cc(O)ccc2[nH]1)c1cc2cc(O)ccc2[nH]1	37.2% (inactive)
CC[C@]1(O)C[C@H]2CN(CCc3c([nH]c4ccccc34)[C@@](C(=O)OC)(c3cc4c(cc3OC)N(C)[C@H]3[C@@](O)(C(N)=O)[C@H](O)[C@]5(CC)C=CCN6CC[C@]43[C@@H]65)C2)C1	29.7% (inactive)
C[C@H]1c2cccc(O)c2C(O)=C2C(=O)C3(O)C(O)=C(C(N)=O)C(=O)[C@@H](N(C)C)[C@@H]3[C@@H](O)[C@@H]21 (some centres undefined)	62.9% (inactive)
Cc1cncc2cccc(S(=O)(=O)N3CCCN(C(=O)CN)C[C@H]3C)c12	43.2% (inactive)
CSc1nc(-c2ccnc(NC(C)c3ccccc3)c2)c(-c2ccc(F)cc2)[nH]1 (centres undefined)	53.6% (inactive)

[ask] What parasite load remaining value was documented for this compound, C=CCN1CCCC1CNC(=O)c1cc2[nH]nnc2cc1OC (centres undefined) ?
[reply] 92.8% (inactive)

[ask] Also O=C(c1ccccc1)c1ccc(N2CCOCC2)cc1O , if possible.
[reply] 40.6% (inactive)

[ask] Also c1ccc(-c2cnc(Nc3ccc(OCCN4CCCC4)cc3)s2)cc1 , if possible.
[reply] 46.3% (inactive)

[ask] Also OC(CCN1CCCCC1)(c1ccccc1)C1C[C@@H]2C=C[C@H]1C2 (some centres undefined) , if possible.
[reply] 24.7% (inactive)
